Test system: 624824-186-R-J3-PDC multicell spheroids, viability
Assay: Anticancer human tumor 624824-186-R-J3-PDC patient-derived colon adenocarcinoma cell line growth inhibition [PI3K]
Conditions: second compound 0.0316 µM; first compound 0.001 µM; stronger effect = lower value
measured_property: viability, T/C (%)
Give bare numbers, in %.

Record excerpt, results attached:
compound | measured_property | unit_annotation | val
CC(C)n1nc(-c2ccc3oc(N)nc3c2)c2c(N)ncnc21 + CC(Nc1ncnc2nc[nH]c12)c1cc2cccc(Cl)c2c(=O)n1-c1ccccc1 | viability, T/C | % | 102
CC(C)n1nc(-c2ccc3oc(N)nc3c2)c2c(N)ncnc21 + COc1c(OCCCN2CCOCC2)ccc2c3n(c(=NC(=O)c4cnc(N)nc4)nc12)CCN3 | viability, T/C | % | 96.7
CC(C)n1nc(-c2ccc3oc(N)nc3c2)c2c(N)ncnc21 + CC(Nc1ccc2c(c1)OCCn1cc(N3C(=O)OCC3C(F)F)nc1-2)C(N)=O | viability, T/C | % | 106

For every item in the list below, what is its measured viability, T/C?
1. Cn1ncnc1[C@H]1c2n[nH]c(=O)c3cc(F)cc(c23)N[C@@H]1c1ccc(F)cc1 + Cc1nc(NC(=O)N2CCCC2C(N)=O)sc1-c1ccnc(C(C)(C)C(F)(F)F)c1
2. CC(=O)c1c(C)c2cnc(Nc3ccc(N4CCNCC4)cn3)nc2n(C2CCCC2)c1=O + CC(Nc1ccc2c(c1)OCCn1cc(N3C(=O)OCC3C(F)F)nc1-2)C(N)=O
3. CC(C)n1nc(-c2ccc3oc(N)nc3c2)c2c(N)ncnc21 + Cc1nc(NC(=O)N2CCCC2C(N)=O)sc1-c1ccnc(C(C)(C)C(F)(F)F)c1

[106, 105, 104]

---

System: 624824-186-R-J3-PDC multicell spheroids, viability
Experiment: Anticancer human tumor 624824-186-R-J3-PDC cell line growth inhibition [PI3K];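 further: luminescent signal used as a stand-in for spheroid viability; spheroids exposed to agents for seven days before luminescence read; percent viability relative to DMSO vehicle control wells taken as 100%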
Details: second compound 0.1 µM; first compound 0.1 µM; stronger effect = lower value
Please assign Not satisfied whenever viability, T/C is at or above 90%, and Satisfied whenever it is below.

// below: answered compounds
compound | qualitative_label
C[C@@H](NC(=O)c1ncnc(N)c1Cl)c1ncc(C(=O)Nc2cc(C(F)(F)F)c(Cl)cn2)s1 + Cc1nc(NC(=O)N2CCCC2C(N)=O)sc1-c1ccnc(C(C)(C)C(F)(F)F)c1 | Not satisfied
Cn1nccc1Nc1nccc(-c2ccn(C(CO)c3ccc(Cl)c(F)c3)c(=O)c2)n1 (configuration not stated) + Cc1nc(NC(=O)N2CCCC2C(N)=O)sc1-c1ccnc(C(C)(C)C(F)(F)F)c1 | Not satisfied
CC(C)NCC(C(=O)N1CCN(c2ncnc3c2C(C)CC3O)CC1)c1ccc(Cl)cc1 (configuration not stated) + COc1c(OCCCN2CCOCC2)ccc2c3n(c(=NC(=O)c4cnc(N)nc4)nc12)CCN3 | Satisfied

Quick check: viability, T/C of CC(=O)c1c(C)c2cnc(Nc3ccc(N4CCNCC4)cn3)nc2n(C2CCCC2)c1=O + Cc1nc(NC(=O)N2CCCC2C(N)=O)sc1-c1ccnc(C(C)(C)C(F)(F)F)c1 under 90%?
Not satisfied

Quick check: viability, T/C of CC(=O)c1c(C)c2cnc(Nc3ccc(N4CCNCC4)cn3)nc2n(C2CCCC2)c1=O + CC(Nc1ccc2c(c1)OCCn1cc(N3C(=O)OCC3C(F)F)nc1-2)C(N)=O under 90%?
Not satisfied

Quick check: viability, T/C of Cn1ncnc1[C@H]1c2n[nH]c(=O)c3cc(F)cc(c23)N[C@@H]1c1ccc(F)cc1 + Cc1nc(NC(=O)N2CCCC2C(N)=O)sc1-c1ccnc(C(C)(C)C(F)(F)F)c1 under 90%?
Not satisfied

The values you see were collected from PubChem BioAssay AID1963977.
